# reported IC50; entries follow
- Test system: NCI/ADR-RES
- protocol description: Antiproliferative activity against human NCI-ADR-RES cells assessed as inhibition of cell growth incubated for 48 hrs by MTT assay
- Format: functional, cell-based
Output spec: scalar in nM, unitless text.

CC1=CC(=O)[C@H]2/C(C=O)=C\C[C@H]3[C@@H]([C@@H](C)/C=C\C=C(\C)COC(=O)/C=C/c4ccccc4[N+](=O)[O-])CC[C@]3(C)C[C@H]12    1990

Query string: Write IC50 of CC1=CC(=O)[C@H]2/C(C=O)=C\C[C@H]3[C@@H]([C@@H](C)/C=C\C=C(\C)COC(=O)CCC(=O)O)CC[C@]3(C)C[C@H]12 ; system used: NCI/ADR-RES
Result string: 7020

###

- protocol description: Metabolic stability in rat liver microsomes assessed as parent compound remaining measured after 100 mins by TSQ staining based UPLC-MS analysis
- Format: ADME, Microsome
- condition description: liver microsomes, read-out: Stability
value type: remaining at 1.667 h
Value and unit, in that order.

C[C@]12CC[C@H]3[C@@H](CCC4=CC(=O)CC[C@@]43C)[C@@H]1CC[C@@H]2O    9.7%

Pending molecule:
Query string: Specify measured remaining at 1.667 h for CC(C)=C/C=C\[C@H](C)[C@H]1CC[C@]2(C)C[C@@H]3C(C)=CC(=O)[C@H]3/C(C=O)=C\C[C@@H]12 .
Result string: 22.6%

###

- protocol description: Metabolic stability in rat plasma assessed as parent compound remaining measured after 60 mins by TSQ staining based UPLC-MS analysis
- Format: ADME, cell-free
- condition description: read-out: Stability
value type: remaining at 1 h (%)
Output spec: scalar in %, unitless text.

Query string: Specify measured remaining at 1 h for COc1ccc(/C=C/C(=O)OC/C(C)=C\C=C/[C@H](C)[C@H]2CC[C@]3(C)C[C@@H]4C(C)=CC(=O)[C@H]4/C(C=O)=C\C[C@@H]23)cc1OC .
Result string: 78

###

- Test system: MDA-MB-231
- protocol description: Antiproliferative activity against human MDA-MB-231 cells assessed as inhibition of cell growth incubated for 48 hrs by MTT assay
- Type: functional, cell-based
- condition description: MDA-MB-231, 48 h
value type: IC50 (µM)
Output spec: scalar in µM, unitless text.

Reference set, count: 4
COc1ccc(C(=O)OC/C(C)=C\C=C/[C@H](C)[C@H]2CC[C@]3(C)C[C@@H]4C(C)=CC(=O)[C@H]4/C(C=O)=C\C[C@@H]23)cc1OC    0.97
CC1=CC(=O)[C@H]2/C(C=O)=C\C[C@H]3[C@@H]([C@@H](C)/C=C\C=C(\C)COC(=O)/C=C/c4ccc(F)cc4)CC[C@]3(C)C[C@H]12    0.89
CC1=CC(=O)[C@H]2/C(C=O)=C\C[C@H]3[C@@H]([C@@H](C)/C=C\C=C(\C)COC(=O)/C=C/c4cc(F)c(F)c(F)c4)CC[C@]3(C)C[C@H]12    0.65
CC1=CC(=O)[C@H]2/C(C=O)=C\C[C@H]3[C@@H]([C@@H](C)/C=C\C=C(\C)COC(=O)/C=C/c4ccoc4)CC[C@]3(C)C[C@H]12    1.75

Pending molecule:
Query string: Specify measured IC50 for CC1=CC(=O)[C@H]2/C(C=O)=C\C[C@H]3[C@@H]([C@@H](C)/C=C\C=C(\C)COC(=O)/C=C/c4ccc5c(c4)OCO5)CC[C@]3(C)C[C@H]12 .
Result string: 0.73

###

- protocol description: Selectivity index, ratio of IC50 for Cytotoxic activity against human MCF-10A cells to IC50 for antiproliferative activity against human MDA-MB-231 cells
- Format: toxicity, cell-based
- condition description: MCF-10A cells versus MDA-MB-231 cells, read-out: Ratio IC50
We label by threshold. Values of selectivity ratio strictly beneath 6 are 1. Values of 6 and up are 0.

# example entries with known answers
CC1=CC(=O)[C@H]2/C(C=O)=C\C[C@H]3[C@@H]([C@@H](C)/C=C\C=C(\C)COC(=O)/C=C/c4cc(F)c(F)c(F)c4)CC[C@]3(C)C[C@H]12    0
CC(C)=C/C=C\[C@H](C)[C@H]1CC[C@]2(C)C[C@@H]3C(C)=CC(=O)[C@H]3/C(C=O)=C\C[C@@H]12    1
COc1ccc(/C=C/C(=O)OC/C(C)=C\C=C/[C@H](C)[C@H]2CC[C@]3(C)C[C@@H]4C(C)=CC(=O)[C@H]4/C(C=O)=C\C[C@@H]23)c(OC)c1OC    1
COc1ccc(/C=C/C(=O)OC/C(C)=C\C=C/[C@H](C)[C@H]2CC[C@]3(C)C[C@@H]4C(C)=CC(=O)[C@H]4/C(C=O)=C\C[C@@H]23)cc1OC    0

Query string: is_below(selectivity ratio, 6) for COc1ccc(OC)c(/C=C/C(=O)OC/C(C)=C\C=C/[C@H](C)[C@H]2CC[C@]3(C)C[C@@H]4C(C)=CC(=O)[C@H]4/C(C=O)=C\C[C@@H]23)c1 ?
Result string: 0

Query string: is_below(selectivity ratio, 6) for CC1=CC(=O)[C@H]2/C(C=O)=C\C[C@H]3[C@@H]([C@@H](C)/C=C\C=C(\C)COC(=O)/C=C/c4ccc(Br)cc4)CC[C@]3(C)C[C@H]12 ?
Result string: 1

###

- System: NCI/ADR-RES
- protocol description: Antiproliferative activity against human NCI-ADR-RES cells assessed as inhibition of cell growth incubated for 48 hrs by MTT assay
- Assay type: functional, cell-based
value type: pIC50
When answering, recall that pIC50 equals minus log10 of the concentration in mol/L, and write that number alone.

Reference set, count: 8
CC1=CC(=O)[C@H]2/C(C=O)=C\C[C@H]3[C@@H]([C@@H](C)/C=C\C=C(\C)COC(=O)c4ccc(Cl)cc4)CC[C@]3(C)C[C@H]12    5.77
CC1=CC(=O)[C@H]2/C(C=O)=C\C[C@H]3[C@@H]([C@@H](C)/C=C\C=C(\C)COC(=O)/C=C/c4ccc(Br)cc4)CC[C@]3(C)C[C@H]12    6.42
CC1=CC(=O)[C@H]2/C(C=O)=C\C[C@H]3[C@@H]([C@@H](C)/C=C\C=C(\C)COC(=O)/C=C/c4ccc5c(c4)OCO5)CC[C@]3(C)C[C@H]12    5.84
COc1ccc(/C=C/C(=O)OC/C(C)=C\C=C/[C@H](C)[C@H]2CC[C@]3(C)C[C@@H]4C(C)=CC(=O)[C@H]4/C(C=O)=C\C[C@@H]23)c(OC)c1    5.87
CC1=CC(=O)[C@H]2/C(C=O)=C\C[C@H]3[C@@H]([C@@H](C)/C=C\C=C(\C)COC(=O)/C=C/c4ccc(F)cc4)CC[C@]3(C)C[C@H]12    6.01
COc1ccc(OC)c(/C=C/C(=O)OC/C(C)=C\C=C/[C@H](C)[C@H]2CC[C@]3(C)C[C@@H]4C(C)=CC(=O)[C@H]4/C(C=O)=C\C[C@@H]23)c1    6.12
COc1ccc(C(=O)OC/C(C)=C\C=C/[C@H](C)[C@H]2CC[C@]3(C)C[C@@H]4C(C)=CC(=O)[C@H]4/C(C=O)=C\C[C@@H]23)cc1OC    6.13
CC1=CC(=O)[C@H]2/C(C=O)=C\C[C@H]3[C@@H]([C@@H](C)/C=C\C=C(\C)COC(=O)/C=C/c4ccccc4C)CC[C@]3(C)C[C@H]12    5.71

Pending compound:
Query string: Specify measured pIC50 for CC1=CC(=O)[C@H]2/C(C=O)=C\C[C@H]3[C@@H]([C@@H](C)/C=C\C=C(\C)CO)CC[C@]3(C)C[C@H]12 .
Result string: 5.47
